Measured values drawn from patent US9452980B2 for this set.

// values below are reported Ki
molecular target: mouse TAAR1 (Mus musculus (Mouse), UniProt Q923Y8); assay: Radioligand binding assay on mouse TAAR1; conditions: mouse TAAR1, HEK-293 membranes, first value of cell mouse/rat; read-out: Ki (μM) mouse
Sequence (Q923Y8 whole entry): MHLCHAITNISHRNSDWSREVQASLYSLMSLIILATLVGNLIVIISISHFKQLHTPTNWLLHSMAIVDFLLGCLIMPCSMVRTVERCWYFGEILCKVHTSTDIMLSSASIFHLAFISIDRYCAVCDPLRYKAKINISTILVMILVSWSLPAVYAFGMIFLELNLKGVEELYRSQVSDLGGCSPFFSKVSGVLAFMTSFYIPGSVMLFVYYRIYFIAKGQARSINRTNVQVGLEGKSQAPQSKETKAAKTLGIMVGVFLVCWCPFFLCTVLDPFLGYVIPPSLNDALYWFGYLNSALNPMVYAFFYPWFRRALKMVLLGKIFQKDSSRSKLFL
Structures can show the parent of a compound that is named as a salt.
Answer by giving the amount and then stating its unit.

O=C(Nc1ccc(C2CCCNC2)cc1)c1ncc(F)cc1F (racemic) [Example 106, hydrochloride]
0.0248 µM
O=C(Cc1ccc(Cl)cc1)Nc1ccc(C2CCCNC2)cc1 (racemic) [Example 102, hydrochloride]
0.0108 µM
CCOc1ccc(C(=O)Nc2ccc([C@@H]3CNCCO3)cc2)cc1 [Example 275, hydrochloride]
0.0082 µM
COc1ccc(C(=O)Nc2ccc(C3CCNC3)cc2)c(F)c1 (racemic) [Example 88, hydrochloride]
0.0052 µM
O=C(Nc1ccc(C2CCNC2)cc1)Nc1ccc(Cl)cn1 (racemic) [Example 44, hydrochloride]
0.0013 µM
O=C(Nc1ccc(C2CNCCO2)cc1)c1ccn(-c2ccccc2)n1 (racemic) [Example 299, hydrochloride]
0.0022 µM

INPUT: Annotate the compound COc1ccc2nc(C(=O)Nc3ccc(C4CCNC4)cc3)ccc2c1 (racemic) [Example 91, hydrochloride] with its measured Ki.
OUTPUT: 0.0039 µM

* * *

target: rat TAAR1 (Rattus norvegicus (Rat)); experiment: Radioligand binding assay on rat TAAR1; settings: rat TAAR1, HEK-293 membranes, second value of cell mouse/rat; read-out: Ki (μM) rat
Sequence (Q923Y9 whole entry): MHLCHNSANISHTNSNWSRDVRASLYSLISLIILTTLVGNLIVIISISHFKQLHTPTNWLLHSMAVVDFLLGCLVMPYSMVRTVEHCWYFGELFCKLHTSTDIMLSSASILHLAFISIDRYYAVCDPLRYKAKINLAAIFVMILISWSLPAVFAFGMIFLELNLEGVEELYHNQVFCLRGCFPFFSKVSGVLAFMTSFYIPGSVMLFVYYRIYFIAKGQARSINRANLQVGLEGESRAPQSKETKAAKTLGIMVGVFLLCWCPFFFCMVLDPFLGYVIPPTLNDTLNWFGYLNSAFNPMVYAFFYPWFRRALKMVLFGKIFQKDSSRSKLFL
Where a name gives a salt, the structure may show the parent alone.
// values below are reported Ki
All answers are understood in µM, so give the number only.

CCOc1ccc(C(=O)Nc2ccc([C@@H]3CCCNC3)cc2)cn1
0.012

INPUT: Annotate the compound O=C(Nc1ccc(CCC2CCNC2)cc1)c1ccc(Cl)cn1 (racemic) [Example 117, hydrochloride] with its measured Ki.
OUTPUT: 0.0029

INPUT: Annotate the compound O=C(Nc1ccc(C2CCNC2)cc1)c1ncccc1F (racemic) [Example 82, hydrochloride] with its measured Ki.
OUTPUT: 1.77

INPUT: Annotate the compound O=C(Nc1ccc(CCC2CCCN2)cc1)c1ccc(C(F)(F)F)cc1 (racemic) [Example 155, hydrochloride] with its measured Ki.
OUTPUT: 0.0009

* * *

biological target: mouse TAAR1 (Mus musculus (Mouse), UniProt Q923Y8); experiment: Radioligand binding assay on mouse TAAR1; conditions: mouse TAAR1, HEK-293 membranes, first value of cell mouse/rat; read-out: Ki (μM) mouse
Where a name gives a salt, the structure may show the parent alone.
// values below are reported Ki
All answers are understood in µM, so give the number only.

Cc1ccc(CNC(=O)Nc2ccc(C3CNCCO3)cc2)cc1 (racemic) [Example 306, hydrochloride]
0.0266
CCCCc1ccc(NC(=O)Nc2ccc(C3CCNC3)cc2)c(C)c1 (racemic) [Example 1, hydrochloride]
0.0056
O=C(Nc1ccc(CCC2CCNC2)cc1)c1ccc(Cl)cn1 (racemic) [Example 117, hydrochloride]
0.0531
O=C(Nc1ccc(C2CCNC2)cc1)OCCc1cccc(C(F)(F)F)c1 (racemic)
0.0014
O=C(Nc1ccc(C2CCNC2)cc1)N1CCCCC1 (racemic)
0.434
O=C(Nc1ccc(C2CNCCO2)cc1)c1csc(-c2ccccc2)n1 (racemic) [Example 233, hydrochloride]
0.0008
O=C(Nc1ccc(C2CCNC2)cc1)c1ccc(Cl)cc1 (racemic) [Example 16, hydrochloride]
0.0007

INPUT: Annotate the compound O=C(Nc1ccc([C@H]2CCCNC2)cc1)c1cccc(C(F)(F)F)c1 [Example 261, hydrochloride] with its measured Ki.
OUTPUT: 0.0027
